Entry source: patent US12624112

measured_on: T1, ST2 on the effector cells (KU812, KU812/NF-κB-1#, HUVEC, HMC-1) (human, UniProt Q01638 19-556)
T1 sequence (looked up): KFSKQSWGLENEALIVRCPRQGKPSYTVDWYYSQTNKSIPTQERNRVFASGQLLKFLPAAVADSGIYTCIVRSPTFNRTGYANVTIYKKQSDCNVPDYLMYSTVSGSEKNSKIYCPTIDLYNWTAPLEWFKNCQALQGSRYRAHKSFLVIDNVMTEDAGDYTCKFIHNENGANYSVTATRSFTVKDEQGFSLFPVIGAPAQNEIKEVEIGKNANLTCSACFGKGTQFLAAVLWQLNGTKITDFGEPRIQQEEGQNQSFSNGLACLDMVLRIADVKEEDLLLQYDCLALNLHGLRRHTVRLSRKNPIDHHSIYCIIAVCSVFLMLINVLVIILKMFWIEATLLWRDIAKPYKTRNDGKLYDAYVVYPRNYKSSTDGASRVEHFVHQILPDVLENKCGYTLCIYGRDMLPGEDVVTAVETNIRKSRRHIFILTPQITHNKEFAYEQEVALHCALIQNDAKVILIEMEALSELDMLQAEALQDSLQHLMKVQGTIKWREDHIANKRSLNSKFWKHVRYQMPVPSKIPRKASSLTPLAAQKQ
test_summary: cell-based or functional assay
measured_metric: Relative activity compared with CNTO7160, KU812-NF-κB reporter gene
Could you kindly put the unit after your number?

INSERT INTO results (binder, reported_result) VALUES
  ('5888-153-H3L2 (antibody, human IgG4 S228P, kappa, V domains shown, Humanized antibody) VH: QVQLVQSGAEVKKPGASVKVSCKASGYTFTDYELHWVRQAPGQGLEWMGTIDPETGDTVYNQKFKARVTMTADKSTSTAYMELSSLRSEDTAVYYCTRAFYNDYDDAFAYWGQGTLVTVSS VL: EIVMTQSPATLSLSPGERATLSCSVSSSVSYMHWYQQKPGQAPRRLIYDTSKLASGIPARFSGSGSGTDYTLTISSLEPEDAAVYYCQQWNTSPLTFGGGTKVEIKR', '362%');

Would you kindly look at the next entry?
For record 5888-153-H3L1 (antibody, human IgG4 S228P, kappa, V domains shown, Humanized antibody) VH: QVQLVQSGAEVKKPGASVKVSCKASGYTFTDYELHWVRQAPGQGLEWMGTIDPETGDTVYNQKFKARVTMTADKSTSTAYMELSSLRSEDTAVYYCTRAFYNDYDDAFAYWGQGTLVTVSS VL: EIVMTQSPATLSLSPGERATLSCSVSSSVSYMHWYQQKPGQAPRRLIYDTSKLASGIPARFSGSGSGTDYTLTISSLEPEDAAVYYCQQWNSSPLTFGGGTKVEIKR the listed Relative activity compared with CNTO7160, KU812-NF-κB reporter gene is 508%
